All values here come from patent US20230014907A1.

molecular target: APOL1 G1 Protein (Homo sapiens, UniProt O14791, I384M/S342G); experiment: Trypanosoma brucei brucei Lysis Assay Using APOL1 Recombinant Protein (AlamarBlue viability); conditions: read-out: Trypanosomal Assay (IC50)
metric_name: IC50

Worked cases, answers included:
compound | IC50
O=C(CCc1c(-c2ccc(F)cc2)[nH]c2c(F)cc(F)cc12)NC1(CO)COC1 [Compound 126] | 250 to 1000 nM
CC(=O)NCCSc1c(-c2ccc(F)cc2)[nH]c2ccccc12 [Compound 510] | 250 to 1000 nM
Cc1cc(NC(=O)CCc2c(-c3ccc(F)cc3)[nH]c3ccc(F)cc23)no1 [Compound 526] | > 1000 nM
C[C@@H](CO)NC(=O)CCc1c(-c2ccc(F)cc2)[nH]c2c(F)cc(F)cc12 [Compound 109] | 250 to 1000 nM
O=C(CCc1c(-c2ccc(F)cc2)[nH]c2c(F)cc(F)cc12)NC1(C(F)(F)F)CC1 [Compound 129] | > 1000 nM

Incoming: Query: IC50; subject: CNC(=O)C(C)NC(=O)CCc1c(-c2ccc(F)cc2)[nH]c2c(F)cc(F)cc12 (racemic) [Compound 100]
Outgoing: 250 to 1000 nM

Incoming: Endpoint output: IC50 of O=C(CCc1c(-c2ccc(F)cc2)[nH]c2c(F)cc(F)cc12)N1CC[C@H]1CO [Compound 138] . Value?
Outgoing: > 1000 nM

Incoming: So what does the record say about IC50 for O=C(CCc1c(-c2ccccc2)[nH]c2ccc(F)cc12)NCCO [Compound 236] ?
Outgoing: > 1000 nM

====

Documented pIC50 across a set of compounds
molecular target: G1 APOL1 (Homo sapiens, UniProt O14791, I384M/S342G); construct: expressed in transfected cells; experiment: Acute APOL1 Thallium Assay with Inducible Stable Clones of HEK 293 Cells; type: cell-based; conditions: HEK 293 inducible stable clones, G1 APOL1; read-out: Thallium Assay (IC50)
Sequence (O14791 28-398 S342G/I384M): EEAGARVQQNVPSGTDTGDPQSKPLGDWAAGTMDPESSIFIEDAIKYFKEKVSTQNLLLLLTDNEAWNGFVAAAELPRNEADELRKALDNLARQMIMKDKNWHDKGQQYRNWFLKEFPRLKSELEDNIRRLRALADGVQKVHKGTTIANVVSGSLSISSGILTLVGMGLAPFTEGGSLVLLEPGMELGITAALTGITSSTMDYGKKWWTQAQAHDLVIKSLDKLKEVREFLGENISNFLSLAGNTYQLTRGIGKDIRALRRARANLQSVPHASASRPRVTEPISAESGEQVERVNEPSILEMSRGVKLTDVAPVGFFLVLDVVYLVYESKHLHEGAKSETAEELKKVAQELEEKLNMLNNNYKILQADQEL
pIC50: −log10 of the molar value.

Example compounds with recorded pIC50:
compound | pIC50
CC(O)C(C)NC(=O)OCCc1c(-c2ccc(F)cc2)[nH]c2c(F)cc(F)cc12 (mixture of isomers) | 6.00 to 6.60
O=C(CCc1c(-c2ccc(F)cc2)[nH]c2c(F)ccc(F)c12)N[C@@H](CO)C(F)(F)F | 6.00 to 6.60
O=C(CCc1c(-c2ccc(F)cc2)[nH]c2c(F)cc(F)cc12)NC1(CO)CC1 | > 6.60

Let us examine a further case.
Incoming: Look at this compound and give its reported pIC50. O=C(CCc1c(-c2ccc(F)cc2)[nH]c2c(F)cc(F)cc12)NCc1cocn1
Outgoing: < 6.00

====

biological target: G1 APOL1 (Homo sapiens, UniProt O14791, I384M/S342G); construct: expressed in transfected cells; assay: Acute APOL1 Thallium Assay with Inducible Stable Clones of HEK 293 Cells; format: cell-based; conditions: HEK 293 inducible stable clones, G1 APOL1; read-out: Thallium Assay (IC50)
pIC50: −log10 of the molar value.
# pIC50 values compiled below

Take a look at these entries with their results.
molecule | pIC50
O=C(NCCc1c(-c2ccc(F)cc2)[nH]c2c(F)cc(F)cc12)C1CCCCC1O (stereo not shown) | 6.00 to 6.60
O=C(NCCc1c(-c2ccc(F)cc2)[nH]c2c(F)cc(F)cc12)NCC1CC(F)(F)C1 | < 6.00
O=C(CCc1c(-c2ccc(F)cc2)[nH]c2c(F)cc(F)cc12)NCCC(=O)N1CC(O)C1 | < 6.00

# next molecule below
Incoming: Look up pIC50: O=C(CCc1c(-c2ccc(F)cc2)[nH]c2c(F)cc(F)cc12)N[C@@H](CO)C(F)(F)F
Outgoing: > 6.60
